Assay: self-splicing fitness, log relative to wild type (ln ratio); higher = more splicing; Tetrahymena group I intron in knt gene, E. coli kanamycin selection, DiMSum; sequences stand for … in CUCUCU…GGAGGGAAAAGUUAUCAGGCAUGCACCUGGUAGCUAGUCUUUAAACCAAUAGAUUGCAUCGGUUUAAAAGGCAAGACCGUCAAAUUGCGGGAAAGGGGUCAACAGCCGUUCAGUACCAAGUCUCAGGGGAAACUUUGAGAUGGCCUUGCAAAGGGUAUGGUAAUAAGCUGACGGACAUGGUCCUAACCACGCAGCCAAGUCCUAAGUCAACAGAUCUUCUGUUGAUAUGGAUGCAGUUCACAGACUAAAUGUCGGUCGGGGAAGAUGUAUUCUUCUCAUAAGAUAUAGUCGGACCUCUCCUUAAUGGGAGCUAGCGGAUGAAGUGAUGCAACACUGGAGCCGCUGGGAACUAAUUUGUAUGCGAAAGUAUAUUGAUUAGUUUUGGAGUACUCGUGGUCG;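 further: selection with 25 µg/mL kanamycin versus none on LB agar overnight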
Conditions: 37 °C
Provide the reported self-splicing fitness (ln) of each item.

GGACAGCAAUAUUACGUUCU | -2.45
CGAUAGCAAUAUUACGUCCC | -0.717
CGGAAGCAAUAUUACGGCGC | -0.448

Can you give me self-splicing fitness (ln) for all of these, one by one?
1. GCGUAGCAAUAUUACGCUAA
2. CAAUAGCAAUAUUACGGUGG
3. AACAAGCAAUAUUACGUAUC
4. UUGUAGCAAUAUUACGUACC
5. CCCGAGCAAUAUUACGACUU
6. CGUGAGCAAUAUUACGCUUG
7. UGGUAGCAAUAUUACGGUAG

-2.25
-0.133
-2.01
-1.29
-3.01
-2.07
-0.912

====

Assay: self-splicing fitness, log relative to wild type (ln ratio); higher = more splicing; Tetrahymena group I intron in knt gene, E. coli kanamycin selection, DiMSum; sequences stand for … in CUCUCU…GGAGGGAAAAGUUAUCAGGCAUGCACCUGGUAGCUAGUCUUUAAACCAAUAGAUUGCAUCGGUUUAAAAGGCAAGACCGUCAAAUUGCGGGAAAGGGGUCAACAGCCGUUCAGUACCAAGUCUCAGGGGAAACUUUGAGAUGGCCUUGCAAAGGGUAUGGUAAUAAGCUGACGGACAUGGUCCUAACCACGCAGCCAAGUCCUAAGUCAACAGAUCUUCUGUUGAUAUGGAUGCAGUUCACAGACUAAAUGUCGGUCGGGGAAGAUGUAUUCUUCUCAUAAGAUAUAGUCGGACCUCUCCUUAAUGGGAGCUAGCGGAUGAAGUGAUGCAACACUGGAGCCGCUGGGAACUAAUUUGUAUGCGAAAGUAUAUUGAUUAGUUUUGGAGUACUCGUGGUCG
Details: 30 °C
Provide the reported self-splicing fitness (ln) of each item.

Solved cases below.
GCCCAGCAAUAUUACGGAGG | -4.2
UGAGAGCAAUAUUACGAGUA | -2.37
AGAAAGCAAUAUUACGUCAC | -3.52
AAUGAGCAAUAUUACGUCAG | -1.81
UUACAGCAAUAUUACGCCCG | -0.115

Can you give me self-splicing fitness (ln) for all of these, one by one?
1. UGGAAGCAAUAUUACGCAGA
2. GAGCAGCAAUAUUACGUUUG

1: -2.85; 2: -2.84

Can you give me self-splicing fitness (ln) for all of these, one by one?
1. ACGCAGCAAUAUUACGGAAG
2. ACUAAGCAAUAUUACGCCUC
3. UCAAAGCAAUAUUACGCUGC
4. CACAAGCAAUAUUACGCACA
5. GAGAAGCAAUAUUACGCAUU
6. AGUGAGCAAUAUUACGCUUU
7. GUGGAGCAAUAUUACGAAUA
8. GCACAGCAAUAUUACGCCAU

1. -3.57
2. -2.41
3. -3.2
4. -1.08
5. -2.53
6. -4.07
7. -4.24
8. -3.37

Can you give me self-splicing fitness (ln) for all of these, one by one?
1. GGCCAGCAAUAUUACGCCGG
2. GUCUAGCAAUAUUACGUAUU
3. UCAGAGCAAUAUUACGUCAC
4. UGAUAGCAAUAUUACGGCAC
5. GAAAAGCAAUAUUACGCAUU
6. CCAUAGCAAUAUUACGAAUG
7. GCUGAGCAAUAUUACGCUGA

[-3.21, -0.645, -2.51, -2.97, -3.24, -2.11, -2.99]

====

Experiment: self-splicing fitness, log relative to wild type (ln ratio); higher = more splicing; Tetrahymena group I intron in knt gene, E. coli kanamycin selection, DiMSum; sequences stand for … in CUCUCU…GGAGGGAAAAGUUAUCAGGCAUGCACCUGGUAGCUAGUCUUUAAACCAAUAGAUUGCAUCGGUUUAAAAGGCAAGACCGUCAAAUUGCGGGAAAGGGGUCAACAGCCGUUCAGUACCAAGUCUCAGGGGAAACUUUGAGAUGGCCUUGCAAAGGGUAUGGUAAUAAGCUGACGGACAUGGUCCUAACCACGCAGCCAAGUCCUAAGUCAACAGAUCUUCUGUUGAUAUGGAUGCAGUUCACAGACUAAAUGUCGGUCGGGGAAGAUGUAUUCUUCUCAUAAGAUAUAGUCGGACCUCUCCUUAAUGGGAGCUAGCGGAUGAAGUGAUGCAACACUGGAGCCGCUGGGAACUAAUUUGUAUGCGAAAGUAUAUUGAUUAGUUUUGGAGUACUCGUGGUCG
Conditions: 37 °C
Measurement type: self-splicing fitness (ln)
Answers are plain numbers.

Solved cases below.
AAUAAGCAAUAUUACGCAAA | -2.05
CUCAAGCAAUAUUACGAAGG | -1.42
CAGGAGCAAUAUUACGCACA | -1.88
CGACAGCAAUAUUACGUCGU | -2.29
UUAUAGCAAUAUUACGUGUG | -0.419
UCAGAGCAAUAUUACGCAAU | -3.06
UAGGAGCAAUAUUACGUAAA | -1.49
UGACAGCAAUAUUACGUGAU | -0.351

Can you give me self-splicing fitness (ln) for all of these, one by one?
1. CGUAAGCAAUAUUACGAACG
2. CCAAAGCAAUAUUACGGGGG
3. UGAAAGCAAUAUUACGAGGU
4. CUAUAGCAAUAUUACGUUCU

-1.76
-1.5
-1.72
-3.02

====

Assay: self-splicing fitness, log relative to wild type (ln ratio); higher = more splicing; Tetrahymena group I intron in knt gene, E. coli kanamycin selection, DiMSum; sequences stand for … in CUCUCU…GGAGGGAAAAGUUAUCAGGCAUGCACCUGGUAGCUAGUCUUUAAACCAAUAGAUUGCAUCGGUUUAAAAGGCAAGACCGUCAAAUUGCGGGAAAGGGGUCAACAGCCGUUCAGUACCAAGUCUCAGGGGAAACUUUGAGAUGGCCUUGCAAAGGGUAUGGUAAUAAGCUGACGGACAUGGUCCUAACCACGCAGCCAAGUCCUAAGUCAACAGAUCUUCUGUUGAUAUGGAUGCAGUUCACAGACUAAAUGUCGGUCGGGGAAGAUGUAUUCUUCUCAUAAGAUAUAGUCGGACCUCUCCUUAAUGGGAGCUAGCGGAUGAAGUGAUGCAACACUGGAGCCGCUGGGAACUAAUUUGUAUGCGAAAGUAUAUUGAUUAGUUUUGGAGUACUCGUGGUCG
Details: 37 °C
Measurement type: self-splicing fitness (ln)
Numbers only.

AGUGAGCAAUAUUACGAAAA | -2.23
UUUUAGCAAUAUUACGACAA | -0.125
ACAAAGCAAUAUUACGUUUG | -1.65
UCUGAGCAAUAUUACGGCGU | -0.983
CAGCAGCAAUAUUACGGGUA | -1.73
UAUUAGCAAUAUUACGUGAU | -1.99
ACUCAGCAAUAUUACGUAAA | -0.79
CUUCAGCAAUAUUACGAUGG | -1.38
CCGAAGCAAUAUUACGCGCG | 0.0615
CCCAAGCAAUAUUACGCGGA | -0.459

Can you give me self-splicing fitness (ln) for all of these, one by one?
1. GUAUAGCAAUAUUACGGAAA
2. AUGCAGCAAUAUUACGUCGU

-2.81
-1.66

Can you give me self-splicing fitness (ln) for all of these, one by one?
1. GAGAAGCAAUAUUACGUACC
2. AUAGAGCAAUAUUACGGUCU
3. UUACAGCAAUAUUACGUAUU
4. CUAGAGCAAUAUUACGCGAG

-0.414
-0.695
-1.55
0.0831

====

Assay: self-splicing fitness, log relative to wild type (ln ratio); higher = more splicing; Tetrahymena group I intron in knt gene, E. coli kanamycin selection, DiMSum; sequences stand for … in CUCUCU…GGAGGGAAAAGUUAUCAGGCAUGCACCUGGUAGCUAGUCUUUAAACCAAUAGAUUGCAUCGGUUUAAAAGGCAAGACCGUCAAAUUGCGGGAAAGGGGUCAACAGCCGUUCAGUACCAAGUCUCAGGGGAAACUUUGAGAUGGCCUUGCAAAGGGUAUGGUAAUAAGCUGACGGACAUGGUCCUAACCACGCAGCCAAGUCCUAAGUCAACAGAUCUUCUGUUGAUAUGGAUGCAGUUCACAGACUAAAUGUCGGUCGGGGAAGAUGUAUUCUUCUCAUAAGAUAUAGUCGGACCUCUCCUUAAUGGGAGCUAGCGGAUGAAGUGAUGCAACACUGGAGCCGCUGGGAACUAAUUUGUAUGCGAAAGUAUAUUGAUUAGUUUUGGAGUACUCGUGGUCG
Conditions: 37 °C
Outcome label depends on self-splicing fitness (ln) relative to -2: at/above gives T, below gives F.

AAGCAGCAAUAUUACGCGAG | T
GAGAAGCAAUAUUACGAAGC | T

Could you please find out whether `UGCCAGCAAUAUUACGAUGG` has self-splicing fitness (ln) that meets -2 or exceeds it?
F

Could you please find out whether `AAUAAGCAAUAUUACGUUGC` has self-splicing fitness (ln) that meets -2 or exceeds it?
F

Could you please find out whether `UAGCAGCAAUAUUACGCGAA` has self-splicing fitness (ln) that meets -2 or exceeds it?
T

Could you please find out whether `CCCCAGCAAUAUUACGCAGG` has self-splicing fitness (ln) that meets -2 or exceeds it?
F

Could you please find out whether `ACCCAGCAAUAUUACGCGCG` has self-splicing fitness (ln) that meets -2 or exceeds it?
T

Could you please find out whether `CGAUAGCAAUAUUACGCACC` has self-splicing fitness (ln) that meets -2 or exceeds it?
T
